B1: ZNF263 (parent)
chain: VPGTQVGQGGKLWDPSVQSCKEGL

Variants of: B1
assay_explanation: protein stability index of a GFP-peptide fusion (GPS, HEK-293T) (PSI 1-6); higher = more stable;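 further: lentivirally expressed fusions sorted by FACS into six bins by GFP to DsRed ratio, PSI derived from sequencing read proportions per bin multiplied by bin number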
condition_details: c terminus: a fixed tail appended
property_name: protein stability index

seq: VPGTQVGQGGKLWVPSVQSCKEGL [D14V]
endpoint_result: 3.87

seq: VPGTTVGQGGKLWDPSVQSCKEGL [Q5T]
endpoint_result: 4.2

seq: VPGTHVGQGGKLWDPSVQSCKEGL [Q5H]
endpoint_result: 4.63

seq: VPGTQVGQGGKLWDSSVQSCKEGL [P15S]
endpoint_result: 4.03

seq: VPGTQVGQGGKLWYPSVQSCKEGL [D14Y]
endpoint_result: 3.11

seq: VPGTQVDQGGKLWDPSVQSCKEGL [G7D]
endpoint_result: 4.24

seq: IPGTQVGQGGKLWDPSVQSCKEGL [V1I]
endpoint_result: 4.31

seq: VPGTQVGQGGKLWDDSVQSCKEGL [P15D]
endpoint_result: 4.29

seq: VPGTQVGQGGKLWDPSVQSCKGGL [E22G]
endpoint_result: 4.34

seq: KPGTQVGQGGKLWDPSVQSCKEGL [V1K]
endpoint_result: 4.36

seq: VPGTQVGSGGKLWDPSVQSCKEGL [Q8S]
endpoint_result: 3.71

seq: PPGTQVGQGGKLWDPSVQSCKEGL [V1P]
endpoint_result: 4.78

seq: VPGTVVGQGGKLWDPSVQSCKEGL [Q5V]
endpoint_result: 4.24

seq: VPGTQVGQGGTLWDPSVQSCKEGL [K11T]
endpoint_result: 4.31

seq: VPGTQVGQGGELWDPSVQSCKEGL [K11E]
endpoint_result: 4.22

seq: VPGTQVGRGGKLWDPSVQSCKEGL [Q8R]
endpoint_result: 4.34
